Exercise: for every item that follows, state its recorded Short-time stability (1h, 56°C) Accuracy [%].
- METHOD SUMMARY: Short-term stability in spiked pooled human plasma (bench-top, 4 °C, 56 °C)
- TEST CONTEXT: validation standard MOV
One number for each entry, in %.

> print(dat)
                    structure.smiles.string  reported
1  CC1(C)CCC(CN2CCN(c3ccc(C(=O)NS(=O)(=O)c4ccc(NCC5CCOCC5)c([N+](=O)[O-])c4)c(Oc4cnc5[nH]ccc5c4)c3)CC2)=C(c2ccc(Cl)cc2)C1      26.4
2  CCOc1cc2ncc(C#N)c(Nc3ccc(OCc4ccccn4)c(Cl)c3)c2cc1NC(=O)/C=C/CN(C)C      26.0

API: the following record is the query input.
Requested field: Short-time stability (1h, 56°C) Accuracy [%]. Item: "CCCS(=O)(=O)Nc1ccc(F)c(C(=O)c2c[nH]c3ncc(-c4ccc(Cl)cc4)cc23)c1F"
39.7

* * *

Exercise: for every item that follows, state its recorded Short-time stability (24h, RT, without daylight) Accuracy [%].
- METHOD SUMMARY: Short-term stability in spiked pooled human plasma (bench-top, 4 °C, 56 °C)
- TEST CONTEXT: validation standard ULOV
One number for each entry, in %.

Please review the entries below; each comes with its answer.
COMPOUND	REPORTED
O=C1CCC(N2C(=O)c3ccccc3C2=O)C(=O)N1 (centres unmarked) [Thalidomide]	1.7
CCN1CCN(Cc2ccc(Nc3ncc(F)c(-c4cc(F)c5nc(C)n(C(C)C)c5c4)n3)nc2)CC1 [Abemaciclib]	87.5
CNC(=O)c1ccccc1Sc1ccc2c(/C=C/c3ccccn3)n[nH]c2c1 [Axitinib]	101.6
CO[C@@H]1[C@H](N(C)C(=O)c2ccccc2)C[C@H]2O[C@]1(C)n1c3ccccc3c3c4c(c5c6ccccc6n2c5c31)C(=O)NC4 [Midostaurin]	88.4
CNC(=O)c1ccc(N2C(=S)N(c3cnc(C#N)c(C(F)(F)F)c3)C(=O)C23CCC3)cc1F [Apalutamide]	63.8

Parameter requested: Short-time stability (24h, RT, without daylight) Accuracy [%]. Apply to each item below.
1. Cc1ccc(Nc2nccc(N(C)c3ccc4c(C)n(C)nc4c3)n2)cc1S(N)(=O)=O [Pazopanib]
2. CNCc1ccc(-c2[nH]c3cc(F)cc4c3c2CCNC4=O)cc1 [Rucaparib]

[99.1, 99.1]

* * *

- METHOD SUMMARY: Freeze-thaw stability in spiked pooled human plasma
- Assay type: physicochemical
- TEST CONTEXT: validation standard 2xLLOV
Exercise: for every item that follows, state its recorded Freeze-Thaw Accuracy [%].
Numbers only, in %.

Please review the entries below; each comes with its answer.
> print(dat)
                                   molecule  reported
1  Cc1ccc(C(=O)Nc2ccc(CN3CCN(C)CC3)c(C(F)(F)F)c2)cc1C#Cc1cnc2cccnn12     101.8
2  NC(=O)c1cccc2cn(-c3ccc([C@@H]4CCCNC4)cc3)nc12      96.8
3  Cc1[nH]c2ccccc2c1CCNCc1ccc(/C=C/C(=O)NO)cc1     107.5
4  Nc1cccc2c1CN(C1CCC(=O)NC1=O)C2=O (centres unmarked) [Lenalidomide]     104.4

Parameter requested: Freeze-Thaw Accuracy [%]. Apply to each item below.
1. O=C(c1cc(Cc2n[nH]c(=O)c3ccccc23)ccc1F)N1CCN(C(=O)C2CC2)CC1
2. CCOc1cc2ncc(C#N)c(Nc3ccc(OCc4ccccn4)c(Cl)c3)c2cc1NC(=O)/C=C/CN(C)C
3. CS(=O)(=O)c1ccc(C(=O)Nc2ccc(Cl)c(-c3ccccn3)c2)c(Cl)c1
4. CNC(=O)c1cc(Oc2ccc(NC(=O)Nc3ccc(Cl)c(C(F)(F)F)c3)cc2)ccn1

1: 99.5; 2: 82.2; 3: 103.4; 4: 97.6
